All figures here come from ChEMBL document CHEMBL4513216.

# PROTOCOL_SUMMARY: Toxicity liver stage against HepG2, at 10uM
# Type: cell-based
# Design: test concentration 10 uM, cell line HepG2-A16-CD81EGFP
# EXPERIMENTAL_CONDITIONS: human, HepG2-A16-CD81EGFP cells; read-out: INHIBITION
ASSAY_ENDPOINT: cytotoxicity at 10 µM (%)

1) CCC(=O)N1CCC2(C=C(C(=O)N3CCCC3)c3ccccc32)CC1 ... -92.8
2) Cc1nc(C2CCCN2CC(=O)N2CCc3ccccc32)no1 (configuration not stated) ... -19.6
3) CS(=O)(=O)N1CCC(Oc2ccc(C(=O)NCCC(N)=O)cc2Cl)CC1 ... -1.28
4) CCC(C)NC(=O)CCn1ccc(C)n1 (configuration not stated) ... -0.634
5) COCc1cc(CNC(=O)c2c(O)cccc2O)n[nH]1 ... -6.93
6) Cc1cc(C)cc(CN2CCN(Cc3cccc(CCN)c3)CC2=O)c1 ... -18.3
7) CCC(C(=O)N(C)Cc1cc(COC)[nH]n1)n1cccn1 (configuration not stated) ... -5.89
8) Cc1nc(CN2CCC3(CCCO3)CC2)c2ccccn12 ... 2.07
9) Cc1nn(C)c(Oc2cccc(F)c2)c1NC(=O)C1CCOCC1 ... -3.91
10) Cc1cccc(CN2C(=O)CO[C@@H]3CN(CCO)C[C@H]32)c1 ... -14.1
11) Clc1cccc(Cl)c1CNCCOc1ccccn1 ... -13.2
12) CC(CN1CCOCC1)NC(=O)N1CCN(S(C)(=O)=O)CC1 (configuration not stated) ... 0.243
13) CC[C@@H]1N(CC2CC2)CCC[C@]12CCC(=O)N2CCOC ... -5.15
14) N#Cc1cccnc1OC1CCNCC1 ... -8.99
15) O=C(c1ncccc1O)N1CCc2c(ncnc2N2CCOCC2)C1 ... -3.99
16) CC(C)c1noc(CS(=O)(=O)Cc2nc(C(C)C)no2)n1 ... -7.85
17) CC(C)(C)[S+]([O-])CCNC(=O)c1ccc(Cl)c2cccnc12 (configuration not stated) ... -44.5
18) Fc1ccc(C2CN(c3ncnc4nc[nH]c34)CCO2)cc1 (configuration not stated) ... 13.1
19) CN(C)C(=O)N1CCN(Cc2nc3ccccc3[nH]2)[C@H]2CS(=O)(=O)C[C@H]21 ... -150
20) CN(Cc1cnn(C)c1)c1nccc(-c2cc(C(=O)O)ccn2)n1 ... -7.33
21) c1ccc(CN2C[C@@H]3OCCN(c4ncccn4)[C@@H]3C2)nc1 ... 3.86
22) CN(Cc1ccsc1)C(=O)c1cccc(F)c1 ... -2.45
23) CCOC(=O)C1CCN(c2cc(C(=O)N3CCCCC3)nc(C)n2)CC1 ... -4.17
24) Cc1nc2c(C)cccc2cc1C(=O)N1CCC2(CC1)NCCNC2=O ... -0.0638
25) CCC(CC)C(=O)N1CCc2nc(N3CCCC3)nc(C)c2CC1 ... 1.79
26) Cc1noc(C)c1CN(C)C(=O)NC1CCN(C2CC2)CC1 ... -10.1
27) CCn1cc(S(=O)(=O)N2CCC(C3CCCCN(C)C3=O)CC2)c(C)n1 (configuration not stated) ... 6.58
28) COc1ccc(C(=O)N2CCC3(CC2)c2ccccc2[C@@H](N)[C@@H]3O)cc1 ... -3.34
29) Cc1noc(CN2CC(=O)N(C)c3ccccc3C2=O)n1 ... -5.03
30) Cc1nc(C)n(Cc2cccc(NC3CCN(C)C3=O)c2)n1 (configuration not stated) ... -0.519
31) Cc1ccc(CN2C[C@@H]3CCCO[C@@H]3[C@H](N(C)Cc3ccco3)C2)s1 ... 3.88
32) CCC(C)Sc1nncn1-c1ccc(OC)nc1 (configuration not stated) ... -1.35
33) CC(C)Nc1cccc(CC2CCN(C)C2)n1 (configuration not stated) ... -27.6
34) COc1ccccc1C1(CNC(=O)NCc2noc(C)n2)CC1 ... -0.343
35) COc1cc(C2(C(=O)N3CCN(CC(C)O)CC3)CC2)ccc1C (configuration not stated) ... -2.43
36) Cc1n[nH]c(C)c1CCNC(=O)Nc1ccc(S(C)(=O)=O)cc1 ... -5.01
37) CN1N=C(C(=O)N2CCN(c3ncccn3)CC2)CCC1=O ... 3.62
38) CCc1ncncc1C(=O)N1CCN(Cc2c(C)noc2C)CC1 ... -13.8
39) O=C(NCc1cnn2cccnc12)c1cccc(CC2CCNCC2)c1 ... -44.5
40) Cc1cc(C(C)(O)CNC(=O)CCOCC(C)C)c(C)o1 (configuration not stated) ... 3.94
41) Cc1noc(C)c1C(=O)NCC(c1cccc(F)c1)N(C)C (configuration not stated) ... -13.1
42) CC(C)OCCOCc1cccc(NC(=O)NCC(=O)N(C)C)c1 ... -5.53
43) CNC(=O)C(CC(C)C)NC(=O)c1cccc(-c2n[nH]c(C)n2)c1 (configuration not stated) ... 9.04
44) Cc1cc(CN2CCc3nn(C)c(=O)cc3C2)on1 ... -8.17
45) Cn1cccc1CN(C(=O)Cc1cccs1)C1CC1 ... 7.53
46) CC1(C)CNC(=O)c2nc(C3CCN(C(=O)C4CC4)CC3)[nH]c2C1 ... 2.26
47) CN1CCCC1CNC(=O)CCCOc1ccc(Br)cc1 (configuration not stated) ... -7.69
